assay: Stability of the compound in human plasma assessed as half life; assay type: ADME, cell-free
ASSAY_METRIC: half-life

Form: compound = O=C1CCC(N2Cc3ccc(S(=O)(=O)n4cncn4)cc3C2=O)C(=O)N1 (stereo unspecified) ; half-life = < 1 min

====

Each entry below carries its recorded half-life.
experiment: Cysteine-reactive in peptide assessed as half life using fluorogenic monochlorobimane/zinc complex by measuring fluorescence intensity; type: ADME; settings: cysteine-containing peptide
Give just the numeric value; min need not be written.

> print(dat)
            compound  assay.metric  endpoint.result
1          NC(=O)CCl     half-life              2.4
2  CN(C)C/C=C/C(N)=O     half-life             30.6

--- query ---
The compound NC(=O)C(F)Cl (stereo not drawn) showed half-life equal to 264
